# systemTested: TRKA (Homo sapiens (Human), UniProt P04629)
# Sequence (P04629 441-796): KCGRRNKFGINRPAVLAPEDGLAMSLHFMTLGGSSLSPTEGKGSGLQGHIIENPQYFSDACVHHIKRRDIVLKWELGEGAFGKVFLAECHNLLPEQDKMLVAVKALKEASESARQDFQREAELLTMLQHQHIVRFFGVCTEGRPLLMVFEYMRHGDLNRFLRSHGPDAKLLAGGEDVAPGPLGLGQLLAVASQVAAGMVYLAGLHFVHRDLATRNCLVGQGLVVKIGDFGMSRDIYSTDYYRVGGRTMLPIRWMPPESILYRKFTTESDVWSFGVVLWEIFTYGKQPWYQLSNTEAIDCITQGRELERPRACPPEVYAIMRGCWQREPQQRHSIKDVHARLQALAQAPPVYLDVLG
# experimentNotes: Isolated TRK enzyme assay (HTRF KinEASE-TK), PV3144 TrkA enzyme assay
# assaySetup: arithmetic mean where more than one reading
readoutKind: IC50 (nM)
Unit nM implied. Number only.

Worked set:
| molecule | units | IC50 |
| --- | --- | --- |
| CC(C)n1cc(C(=O)c2cc(NC(=O)Cc3ccc(C#N)cc3)ccn2)c2cnccc21 | nM | 176 |
| Cc1cc(C(F)(F)F)nn1CC(=O)Nc1cncc(C(=O)c2cn(C(C)CO)c3ccncc23)c1 (single isomer, unassigned) [Example 77] | nM | 33.7 |
| CC(C)n1cc(C(=O)c2ccnc(NC(=O)Cc3nc(C(C)(C)C)nn3C)c2)c2cnccc21 | nM | 36.1 |

The value of IC50 measured for the molecule `CC(C)n1cc(C(=O)c2cncc(NC(=O)Cn3ccc(C4CC4)n3)c2)c2cnccc21` turned out to be 108

The value of IC50 measured for the molecule `CC(C)n1cc(C(=O)c2cc(NC(=O)Cc3ccc(C#N)cn3)ccn2)c2cnccc21` turned out to be 207

The value of IC50 measured for the molecule `CC(C)n1cc(C(=O)c2ccnc(NC(=O)Cc3ccc(C#N)c(C(F)(F)F)c3)c2)c2cnccc21` turned out to be 24.4

The value of IC50 measured for the molecule CC(CO)n1cc(C(=O)c2cncc(NC(=O)Cc3ccc(C#N)cc3)c2)c2cncc(F)c21 (single isomer, unassigned) [Example 213] turned out to be 252

The value of IC50 measured for the molecule `CC(C)n1cc(C(=O)c2cncc(NC(=O)Cc3nc(C(C)(C)C)nn3C)c2)c2cnccc21` turned out to be 179
